- system name: Nuclear receptor ROR-gamma (Homo sapiens, UniProt P51449)
- Sequence (P51449 whole entry): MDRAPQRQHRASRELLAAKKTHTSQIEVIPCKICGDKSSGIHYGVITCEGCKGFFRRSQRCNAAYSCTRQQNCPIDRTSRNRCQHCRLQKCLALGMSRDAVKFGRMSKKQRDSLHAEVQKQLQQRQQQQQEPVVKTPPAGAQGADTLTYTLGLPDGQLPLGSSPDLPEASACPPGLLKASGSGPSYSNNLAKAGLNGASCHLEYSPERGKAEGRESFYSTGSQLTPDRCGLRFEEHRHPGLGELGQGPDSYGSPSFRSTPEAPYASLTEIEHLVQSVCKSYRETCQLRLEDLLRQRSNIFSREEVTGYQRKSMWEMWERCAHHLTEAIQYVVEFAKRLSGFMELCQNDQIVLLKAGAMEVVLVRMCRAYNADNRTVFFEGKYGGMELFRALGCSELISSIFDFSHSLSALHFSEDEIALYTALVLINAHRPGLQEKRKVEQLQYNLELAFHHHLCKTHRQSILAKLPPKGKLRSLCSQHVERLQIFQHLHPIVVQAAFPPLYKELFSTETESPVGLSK
- method description: Agonist activity at biotinylated RORgammat LBD (unknown origin) assessed as co-activator SRC1 peptide recruitment after 1 hr by dual FRET based LANCE assay
assay endpoint: EC50 (µM)
State the answer as a number, implicitly in µM.

Hello, I am looking for reported EC50 with Nuclear receptor ROR-gamma (Homo sapiens, UniProt P51449) for CCS(=O)(=O)c1ccc(CC(=O)Nc2nc(-c3ccccc3)c(C(=O)c3ccccc3C(C)C)s2)cc1 . Could you help? 0.126

Hello, I am looking for reported EC50 with Nuclear receptor ROR-gamma (Homo sapiens, UniProt P51449) for CCS(=O)(=O)c1ccc(CC(=O)Nc2nc(-c3ccccc3)c(C(=O)c3ccccc3C3CCCC3)s2)cc1 . Could you help? 0.0398

Hello, I am looking for reported EC50 with Nuclear receptor ROR-gamma (Homo sapiens, UniProt P51449) for CCS(=O)(=O)c1ccc(CC(=O)Nc2nc(-c3ccccc3)c(C(=O)c3ccccc3CC(C)C)s2)cc1 . Could you help? 0.0251
